# test_protocol: Pharmacokinetics in mice (single i.v. and oral dose)
# experimental_parameters: mouse, in vivo; mice (n=3), single i.v. 1 mg per kg and single oral 3 mg per kg dose; read-out: t1/2 (half-life)
measurement_kind: half-life (h)
Answers are plain numbers, in h.

Could I get half-life for every one of these entries?
1. COCc1ccccc1NCc1ccc([C@H]2[C@@H](O)CCCc3cncn32)c(-c2ccccc2Cl)c1 [CSN5i-2]
2. CC(C)n1nc(C(F)F)cc1C(=O)Nc1ccc([C@H]2[C@@H](O)CCCc3cncn32)c(-c2ccccc2)c1 [CSN5i-3]

Key:
1: 0.6; 2: 2.5

====

Would you mind telling me the reported pEC50 of each entry?
# Tested on: panel of cancer cell lines
# test_protocol: Cell viability (CellTiter-Glo) dose-response across cancer cell line panel;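 also: after 72 h compound incubation with CellTiter-Glo ATP readout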
# Assay type: cell-based, human
# experimental_parameters: Homo sapiens, SJRH30, SJRH30
# Description: Next, we explored the effect of CSN5 inhibition on the viability of cancer cells. […] A standardized CellTiter-Glo Assay (Promega #G7570) based on the quantification of ATP was applied according to the manufacturer's protocol to measure the amount of viable cells in culture. […] EC50 values were calculated from the plot of percentage of inhibition versus inhibitor concentration using the nonlinear regression analysis software Origin 7.5SR6 (OriginLab Corp.).
Answers are plain numbers, as −log10 of the molar value.

1. NS(=O)(=O)OC[C@@H]1C[C@@H](n2ccc3c(N[C@H]4CCc5ccccc54)ncnc32)C[C@@H]1O	7.14

Please examine the following record next.
Exercise: Item COCc1ccccc1NCc1ccc([C@H]2[C@@H](O)CCCc3cncn32)c(-c2ccccc2Cl)c1 with panel of cancer cell lines - pEC50?
Key: 5.72

====

# Test system: panel of cancer cell lines
# test_protocol: Cell viability (CellTiter-Glo) dose-response across cancer cell line panel;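 also: after 72 h compound incubation with CellTiter-Glo ATP readout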
# Format: cell-based, human
# experimental_parameters: Homo sapiens, KYSE-150, KYSE-150 cells
measurement_kind: EC50 (µM)
One number for each entry, in µM.

Exercise: Item COCc1ccccc1NCc1ccc([C@@H]2[C@H](O)CCCc3cncn32)c(-c2ccccc2Cl)c1 with panel of cancer cell lines - EC50?
Key: 10.7

====

# Tested on: panel of cancer cell lines
# test_protocol: Cell viability (CellTiter-Glo) dose-response across cancer cell line panel;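 also: after 72 h compound incubation with CellTiter-Glo ATP readout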
# Type: cell-based, human
# experimental_parameters: Homo sapiens, SW1088, SW 1088
measurement_kind: pEC50
One number for each entry, as −log10 of the molar value.

Exercise: Can you share its pEC50? I mean this molecule: CC(C)C[C@H](NC(=O)[C@H](Cc1ccccc1)NC(=O)c1cnccn1)B(O)O
Key: 8.23

====

# System: panel of cancer cell lines
# test_protocol: Cell viability (CellTiter-Glo) dose-response across cancer cell line panel;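 also: after 72 h compound incubation with CellTiter-Glo ATP readout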
# Assay type: cell-based, human
# experimental_parameters: Homo sapiens, GI-1, GI-1 cells
measurement_kind: pEC50
Answers are plain numbers, as −log10 of the molar value.

Exercise: Item COCc1ccccc1NCc1ccc([C@@H]2[C@H](O)CCCc3cncn32)c(-c2ccccc2Cl)c1 with panel of cancer cell lines - pEC50?
Key: 4.81

====

# System: panel of cancer cell lines
# test_protocol: Cell viability (CellTiter-Glo) dose-response across cancer cell line panel;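 also: after 72 h compound incubation with CellTiter-Glo ATP readout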
# Type: cell-based, human
# experimental_parameters: Homo sapiens, CCRF-HSB-2, CCRF-HSB-2 cells
measurement_kind: EC50 (µM)
One number for each entry, in µM.

Exercise: Can you share its EC50? I mean this compound: COCc1ccccc1NCc1ccc([C@@H]2[C@H](O)CCCc3cncn32)c(-c2ccccc2Cl)c1
Key: 4.36

====

# Test system: panel of cancer cell lines
# test_protocol: Cell viability (CellTiter-Glo) dose-response across cancer cell line panel;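 also: after 72 h compound incubation with CellTiter-Glo ATP readout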
# Format: cell-based, human
# experimental_parameters: Homo sapiens, NCI-H460, NCI-H460
# Method: Next, we explored the effect of CSN5 inhibition on the viability of cancer cells. […] A standardized CellTiter-Glo Assay (Promega #G7570) based on the quantification of ATP was applied according to the manufacturer's protocol to measure the amount of viable cells in culture. […] EC50 values were calculated from the plot of percentage of inhibition versus inhibitor concentration using the nonlinear regression analysis software Origin 7.5SR6 (OriginLab Corp.).
measurement_kind: EC50
Returns: string containing the number followed by the unit.

1. COCc1ccccc1NCc1ccc([C@H]2[C@@H](O)CCCc3cncn32)c(-c2ccccc2Cl)c1	8.61 µM

Please examine the following record next.
Exercise: Item NS(=O)(=O)OC[C@@H]1C[C@@H](n2ccc3c(N[C@H]4CCc5ccccc54)ncnc32)C[C@@H]1O with panel of cancer cell lines - EC50?
Key: 1.46 µM

====

# Tested on: panel of cancer cell lines
# test_protocol: Cell viability (CellTiter-Glo) dose-response across cancer cell line panel;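 also: after 72 h compound incubation with CellTiter-Glo ATP readout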
# Format: cell-based, human
# experimental_parameters: Homo sapiens, Lu-99, LU99 cells
measurement_kind: EC50 (µM)
Give bare numbers, in µM.

Exercise: Can you share its EC50? I mean this molecule: COCc1ccccc1NCc1ccc([C@@H]2[C@H](O)CCCc3cncn32)c(-c2ccccc2Cl)c1
Key: 9.78

====

# System: panel of cancer cell lines
# test_protocol: Cell viability (CellTiter-Glo) dose-response across cancer cell line panel;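 also: after 72 h compound incubation with CellTiter-Glo ATP readout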
# Type: cell-based, human
# experimental_parameters: Homo sapiens, ONCO-DG-1, ONCO-DG-1
measurement_kind: pEC50
Numbers only, as −log10 of the molar value.

1) COCc1ccccc1NCc1ccc([C@H]2[C@@H](O)CCCc3cncn32)c(-c2ccccc2Cl)c1	5.95

Please examine the following record next.
Exercise: Can you share its pEC50? I mean this molecule: CC(C)C[C@H](NC(=O)[C@H](Cc1ccccc1)NC(=O)c1cnccn1)B(O)O
Key: 7.94

====

# Test system: panel of cancer cell lines
# test_protocol: Cell viability (CellTiter-Glo) dose-response across cancer cell line panel;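 also: after 72 h compound incubation with CellTiter-Glo ATP readout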
# Assay type: cell-based, human
# experimental_parameters: Homo sapiens, PE/CA-PJ49 cells
measurement_kind: EC50 (µM)
Answers are plain numbers, in µM.

Exercise: Can you share its EC50? I mean this compound: COCc1ccccc1NCc1ccc([C@@H]2[C@H](O)CCCc3cncn32)c(-c2ccccc2Cl)c1
Key: 12.7

====

# Tested on: panel of cancer cell lines
# test_protocol: Cell viability (CellTiter-Glo) dose-response across cancer cell line panel;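 also: after 72 h compound incubation with CellTiter-Glo ATP readout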
# Format: cell-based, human
# experimental_parameters: Homo sapiens, DMS-153, DMS 153
measurement_kind: EC50 (nM)
Numbers only, in nM.

1) COCc1ccccc1NCc1ccc([C@H]2[C@@H](O)CCCc3cncn32)c(-c2ccccc2Cl)c1 [CSN5i-2]	405

Exercise: Can you share its EC50? I mean this compound: NS(=O)(=O)OC[C@@H]1C[C@@H](n2ccc3c(N[C@H]4CCc5ccccc54)ncnc32)C[C@@H]1O [MLN4924]
Key: 42.9

====

# System: panel of cancer cell lines
# test_protocol: Cell viability (CellTiter-Glo) dose-response across cancer cell line panel;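 also: after 72 h compound incubation with CellTiter-Glo ATP readout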
# Type: cell-based, human
# experimental_parameters: Homo sapiens, SNB-19, SNB-19
Would you mind telling me the reported EC50 of each entry?
Numbers only, in nM.

1) COCc1ccccc1NCc1ccc([C@H]2[C@@H](O)CCCc3cncn32)c(-c2ccccc2Cl)c1	2200

Exercise: Can you share its EC50? I mean this compound: NS(=O)(=O)OC[C@@H]1C[C@@H](n2ccc3c(N[C@H]4CCc5ccccc54)ncnc32)C[C@@H]1O
Key: 626

====

# Tested on: panel of cancer cell lines
# test_protocol: Cell viability (CellTiter-Glo) dose-response across cancer cell line panel;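 also: after 72 h compound incubation with CellTiter-Glo ATP readout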
# Type: cell-based, human
# experimental_parameters: Homo sapiens, HCC1937, HCC1937
measurement_kind: pEC50
One number for each entry, as −log10 of the molar value.

Exercise: Can you share its pEC50? I mean this molecule: CC(C)C[C@H](NC(=O)[C@H](Cc1ccccc1)NC(=O)c1cnccn1)B(O)O [Bortezomib]
Key: 8.13

====

# Tested on: panel of cancer cell lines
# test_protocol: Cell viability (CellTiter-Glo) dose-response across cancer cell line panel;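 also: after 72 h compound incubation with CellTiter-Glo ATP readout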
# Assay type: cell-based, human
# experimental_parameters: Homo sapiens, SK-MES-1, SK-MES-1
# Procedure: Next, we explored the effect of CSN5 inhibition on the viability of cancer cells. […] A standardized CellTiter-Glo Assay (Promega #G7570) based on the quantification of ATP was applied according to the manufacturer's protocol to measure the amount of viable cells in culture. […] EC50 values were calculated from the plot of percentage of inhibition versus inhibitor concentration using the nonlinear regression analysis software Origin 7.5SR6 (OriginLab Corp.).
measurement_kind: EC50 (nM)
Answers are plain numbers, in nM.

Exercise: Can you share its EC50? I mean this compound: NS(=O)(=O)OC[C@@H]1C[C@@H](n2ccc3c(N[C@H]4CCc5ccccc54)ncnc32)C[C@@H]1O
Key: 725

====

# System: panel of cancer cell lines
# test_protocol: Cell viability (CellTiter-Glo) dose-response across cancer cell line panel;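 also: after 72 h compound incubation with CellTiter-Glo ATP readout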
# Assay type: cell-based, human
# experimental_parameters: Homo sapiens, cell line VMRC-RCZ
measurement_kind: EC50 (nM)
Give bare numbers, in nM.

Exercise: Can you share its EC50? I mean this compound: CC(C)C[C@H](NC(=O)[C@H](Cc1ccccc1)NC(=O)c1cnccn1)B(O)O
Key: 8.46
